test: CREB reporter modulators under forskolin, primary screen, cell-based, PC12, CRE-LacZ reporter, forskolin-stimulated (AID 1146); conditions: luminescence, 4.5 h, higher = more signal, called active from +8 up or from −8 down;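 also: PC12 cells with 6xCRE LacZ reporter stimulated by forskolin 10 µM; beta-galactosidase reporter signal reflecting CREB driven transcription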
z-score vs -0.6: at or above is condition met, below is condition not met.

For orientation, consider the following solved cases.
- Molecule: "CN(C)CCCNC(=O)[C@@H]1c2ccccc2C(=O)N(CC23CC4CC(CC(C4)C2)C3)[C@H]1c1ccc(CO)cc1"
  Discrete Label: "condition met"
- Molecule: "CN(C)CCCCNC(=O)[C@H]1C[C@H]2C(=O)N3CCC[C@H]3C(=O)N2[C@H]1c1ccc(O)cc1"
  Discrete Label: "condition not met"
- Molecule: "COc1ccc(C(O)C2C=CC3C(=O)N(c4ccccc4)C(=O)C3N2Nc2ccc(C#N)cc2)c2ccccc12 (configuration not stated)"
  Discrete Label: "condition met"

Challenge: Item COCCCNC(=O)[C@@H]1c2ccccc2C(=O)N(Cc2ccccc2C(F)(F)F)[C@H]1c1ccc(CO)cc1 with z-score of -0.6 or above?
Response given: condition not met

Challenge: Reported z-score at or above -0.6? CC(C)C[C@@H]1NC(=O)[C@H]2C[C@@H](C(=O)NCCCCCC[N+](C)(C)C)[C@@H](c3cccc(OCCO)c3)N2C1=O
Response given: condition met

Challenge: Confirm if z-score reported for the molecule CCOC(=O)C[C@H]1[C@H](OC(=O)Cc2ccc3c(c2)OCO3)[C@@H](NC(=O)Cc2ccc(OC)cc2)c2cc(OCCCO)ccc2N1C(=O)c1ccccc1 is -0.6 or above.
Response given: condition met

---

assay: HepG2 liver cancer cell viability effects, profiling panel, resazurin fluorescence, 24 h, PK04 Diversity Set (AID 1172); conditions: higher = more signal; also: test concentration not given here
Where z-score equals or exceeds -0.2, the correct label is Condition met; where it does not, the label is Condition not met.

Observe how each entry below is paired with its result.
- Compound: "COc1ccc([Si](C)(C)[C@H]2[C@H](CCn3cc(CCO)nn3)O[C@@]3(C(=O)N(Cc4ccc(N5C(=O)c6cccc7cccc5c67)cc4)c4ccccc43)[C@@H]2C)cc1"
  Discrete Label: "Condition not met"
- Compound: "COc1ccccc1CN1C(=O)c2ccccc2[C@](Cc2ccccc2I)(C(=O)NC(C)C)[C@@H]1c1ccc(CO)cc1"
  Discrete Label: "Condition met"

Now, please, on to the next compound.
Challenge: Say whether O=C1OCC=C[C@H]2OC34C=CCN(c5ccc(Cl)cc5)C(=O)[C@H]3N(CCCCCO)C(=O)[C@@H]4[C@@H]12 (stereo not given in full) shows z-score of -0.2 or more.
Response given: Condition not met

---

This section presents compounds with their documented composite z-score values.
assay: compound binding in COS7 lysate, probe aLAP1, primary screen, cell lysate, small-molecule microarray (AID 1124); conditions: probe aLAP1, fluorescence, higher = more signal;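 also: lysate comes from COS7 cells expressing LAP1 and is applied at 0.3 µg/mL; score merges spot fluorescence near 667 nm with signal-to-noise over triplicate slides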
// response body must contain only the number

Check out these entries, answers already filled in.
- Compound: "CCCC=C(CCC)[C@@H](NP(=O)(c1ccccc1)c1ccccc1)c1ccc(C(F)(F)F)cc1"
  composite z-score: 0.207
- Compound: "C=CCOC(=O)[C@@H]1[C@H]2C(=O)O[C@H](c3ccccc3)[C@H](c3ccccc3)N2[C@H](c2ccc(OCCOC(=O)[C@H]3C[C@H]4C(=O)N[C@@H](CCCCNC(C)=O)C(=O)N4[C@H]3c3cccc(OCCO)c3)cc2)[C@@]12C(=O)Nc1ccc(I)cc12"
  composite z-score: 0.583

Challenge: So what does the record say about composite z-score for CC=CC(O)C1C=CC2C(=O)N(C)C(=O)C2N1Nc1ccc([N+](=O)[O-])cc1[N+](=O)[O-] (stereo not drawn) ?
Response given: 0.146
